Data provenance: ChEMBL document CHEMBL3585289

assay.remarks: AUC (0 to 8 hrs) in Sprague-Dawley rat at 2 mg/kg, iv
Type: ADME, organism-based
Set-up: dose 2 mg/kg, time < 8 hr, route intravenous
test.context: in vivo
property: AUC(0-t) at 8 h (µM·h)
Give the number; µM·h is assumed, so skip it.

INPUT: Retrieve AUC(0-t) at 8 h measured for Cc1ccc(-n2nc(N3CCN(C)CC3)cc2NC(=O)c2cnn3cccnc23)nc1 and print it.
OUTPUT: 1.29

* * *

I'd appreciate it if you could supply log10 AUC(0-t) at 6 h values for the items below.
assay.remarks: AUC (0 to 6 hrs) in Sprague-Dawley rat at 10 mg/kg, po administered as cassette dosing
Type: ADME, organism-based
Design: time < 6 hr, dose 10 mg/kg, route oral
test.context: in vivo
Scale: log10; quantity: AUC(0-t) at 6 h; unit before log: µM·h

INPUT: Retrieve log10 AUC(0-t) at 6 h measured for Cc1ccc(-n2nc(C3CCN(S(C)(=O)=O)CC3)cc2NC(=O)c2cnn3cccnc23)cc1 and print it.
OUTPUT: 1.29

INPUT: Retrieve log10 AUC(0-t) at 6 h measured for COc1ccc(-n2nc(C3CCN(S(C)(=O)=O)CC3)cc2NC(=O)c2cnn3cccnc23)cc1 and print it.
OUTPUT: -0.37

INPUT: Retrieve log10 AUC(0-t) at 6 h measured for Cc1ccc(-n2nc(C3CCOCC3)cc2NC(=O)c2cnn3cccnc23)cc1 and print it.
OUTPUT: -0.35

INPUT: Retrieve log10 AUC(0-t) at 6 h measured for Cc1ccc(-n2nc(C3CCN(C(C)C)CC3)cc2NC(=O)c2cnn3cccnc23)cc1 and print it.
OUTPUT: -0.55

INPUT: Retrieve log10 AUC(0-t) at 6 h measured for COc1cc(-c2cc(NC(=O)c3cnn4cccnc34)n(-c3ccc(C)cc3)n2)ccn1 and print it.
OUTPUT: 0.14

INPUT: Retrieve log10 AUC(0-t) at 6 h measured for Cc1ccc(-n2nc(C3CC3)cc2NC(=O)c2cnn3cccnc23)cc1 and print it.
OUTPUT: 0.37

INPUT: Retrieve log10 AUC(0-t) at 6 h measured for CS(=O)(=O)N1CCC(c2cc(NC(=O)c3cnn4cccnc34)n(-c3ccc(C4CC4)cc3)n2)CC1 and print it.
OUTPUT: 0.72

INPUT: Retrieve log10 AUC(0-t) at 6 h measured for Cc1ccc(-n2nc(C3CCN(S(C)(=O)=O)CC3)cc2NC(=O)c2cnn3cccnc23)c(F)c1 and print it.
OUTPUT: 1.07

INPUT: Retrieve log10 AUC(0-t) at 6 h measured for Cc1ccc(-n2nc(-c3cccnc3)cc2NC(=O)c2cnn3cccnc23)cc1 and print it.
OUTPUT: -0.36

INPUT: Retrieve log10 AUC(0-t) at 6 h measured for CC(=O)N1CCC(c2cc(NC(=O)c3cnn4cccnc34)n(-c3ccc(C)cc3)n2)CC1 and print it.
OUTPUT: -0.15
